Consider the following compounds; for each one, report its log10 of IC50.
# Test system: Cryptococcus neoformans
# protocolNotes: Antifungal activity against Cryptococcus neoformans ATCC 90113 by CLSI method
# Assay type: functional, organism-based
# experimentalContext: read-out: pIC50 (converted)
Quick note: numbers are log10 of IC50, with nM as the unit.

- Oc1ccc(CSc2cc3ccccc3[n+](CCCCCC3CCCCC3)c2)cc1.[I-]: 3.96
- FC(F)(F)c1ccc(CSc2cc3ccccc3[n+](CCCCCC3CCCCC3)c2)cc1.[I-]: 2.62
- Fc1ccc(CSc2cc3ccccc3[n+](CCCCCC3CCCCC3)c2)cc1.[I-]: 2.83

Okay, here is my list. What is log10 of IC50 for each of these?
1. COc1cccc(Sc2cc3ccccc3[n+](CCCCCC3CCCCC3)c2)c1.[I-]
2. CC(C)(C)c1ccc(CSc2cc3ccccc3[n+](CCCCCC3CCCCC3)c2)cc1.[I-]
3. Cc1ccc(CSc2cc3ccccc3[n+](CCCCCC3CCCCC3)c2)cc1.[I-]
4. [I-].[O-][S+](c1cccc(C(F)(F)F)c1)c1cc2ccccc2[n+](CCCCCc2ccccc2)c1 (stereo not given)
5. Brc1ccccc1CSc1cc2ccccc2[n+](CCCCCC2CCCCC2)c1.[I-]
6. [I-].[O-][S+](c1cc2ccccc2[n+](CCCCCc2ccccc2)c1)c1ccccc1C(F)(F)F (stereo not given)

1: 4.27; 2: 2.95; 3: 2.66; 4: 4.04; 5: 3.05; 6: 3.97
